assay remarks: Plasma pharmacokinetics of cocaine and benzoylecgonine after IV cocaine-d5 infusion
experimental conditions: human, in vivo, Vz, Pre Selegiline (session 1); plasma; mean ± SD
measure name: Vd (L/kg)
Numbers only, in L/kg.

Memo: COC(=O)[C@H]1[C@@H](OC(=O)c2ccccc2)C[C@@H]2CC[C@H]1N2C [Cocaine, cocaine] , reported Vd: 2.49

---

assay remarks: Plasma pharmacokinetics of cocaine and benzoylecgonine after IV cocaine-d5 infusion
experimental conditions: human, in vivo, AUC (0-t), With Selegiline (session 2); plasma; mean ± SD
measure name: AUC(0-t) (ng·h/mL)
Answers are plain numbers, in ng·h/mL.

AUC(0-t) reading for COC(=O)[C@H]1[C@@H](OC(=O)c2ccccc2)C[C@@H]2CC[C@H]1N2C [Cocaine, cocaine] : 2360
